Data credit: PubChem BioAssay AID2060898

System: 616215-338-R-J1-PDC complex spheroid viability;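 further: spheroids exposed to agents for seven days before viability readout; 100% = DMSO vehicle control viability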
test_description: Anticancer human tumor 616215-338-R-J1-PDC patient-derived colon adenocarcinoma cell line growth inhibition [RAS]; active means viability on the fitted dose curve at most 10% of control; inactive means the rest
condition_label: second compound 0.1 µM; first compound 3.16 µM
Allowed answers: class 1 for active, class 0 for inactive

Completed entries (count: 3):
| compound | system_tested | answer_label |
| --- | --- | --- |
| CCC(CC)c1cc(NC2CCC(N)C2)n2nccc2n1 (centres undefined) + C=CC(=O)N1CCN(c2nc(OCC3CCCN3C)nc3c(F)c(-c4nc(N)cc(C)c4C(F)(F)F)c(Cl)cc23)C(C)C1 | 616215-338-R-J1-PDC complex spheroid viability | class 1 |
| CC(=O)OC12COC1CC(O)C1(C)C(=O)C(O)C3=C(C)C(OC(=O)C(O)C(NC(=O)OC(C)(C)C)c4ccccc4)CC(O)(C(OC(=O)c4ccccc4)C21)C3(C)C (centres undefined) + C#Cc1c(F)ccc2cc(O)cc(-c3ncc4c(N5CC6CCC(C5)N6)nc(OCC56CCCN5CC(F)C6)nc4c3F)c12 | 616215-338-R-J1-PDC complex spheroid viability | class 0 |
| CC(C)NCC(C(=O)N1CCN(c2ncnc3c2C(C)CC3O)CC1)c1ccc(Cl)cc1 (centres undefined) + C=CC(=O)N1CCN(c2nc(OCC3CCCN3C)nc3c(F)c(-c4nc(N)cc(C)c4C(F)(F)F)c(Cl)cc23)C(C)C1 | 616215-338-R-J1-PDC complex spheroid viability | class 0 |

Now examine the next entry.
Which outcome was entered for the compound CC(=O)OC12COC1CC(O)C1(C)C(=O)C(O)C3=C(C)C(OC(=O)C(O)C(NC(=O)OC(C)(C)C)c4ccccc4)CC(O)(C(OC(=O)c4ccccc4)C21)C3(C)C (centres undefined) + C=CC(=O)N1CCN(c2nc(OCC3CCCN3C)nc3c(F)c(-c4nc(N)cc(C)c4C(F)(F)F)c(Cl)cc23)C(C)C1 in this test? class 0
